tested.target: CFTR ΔF508 mutant (Homo sapiens, UniProt P13569, DEL508-508)
Construct: expressed in transfected cells; host or cells: CFBE41o- (adenoviral transduction)
Sequence (P13569 with tags, fused parts or gaps DEL508-508): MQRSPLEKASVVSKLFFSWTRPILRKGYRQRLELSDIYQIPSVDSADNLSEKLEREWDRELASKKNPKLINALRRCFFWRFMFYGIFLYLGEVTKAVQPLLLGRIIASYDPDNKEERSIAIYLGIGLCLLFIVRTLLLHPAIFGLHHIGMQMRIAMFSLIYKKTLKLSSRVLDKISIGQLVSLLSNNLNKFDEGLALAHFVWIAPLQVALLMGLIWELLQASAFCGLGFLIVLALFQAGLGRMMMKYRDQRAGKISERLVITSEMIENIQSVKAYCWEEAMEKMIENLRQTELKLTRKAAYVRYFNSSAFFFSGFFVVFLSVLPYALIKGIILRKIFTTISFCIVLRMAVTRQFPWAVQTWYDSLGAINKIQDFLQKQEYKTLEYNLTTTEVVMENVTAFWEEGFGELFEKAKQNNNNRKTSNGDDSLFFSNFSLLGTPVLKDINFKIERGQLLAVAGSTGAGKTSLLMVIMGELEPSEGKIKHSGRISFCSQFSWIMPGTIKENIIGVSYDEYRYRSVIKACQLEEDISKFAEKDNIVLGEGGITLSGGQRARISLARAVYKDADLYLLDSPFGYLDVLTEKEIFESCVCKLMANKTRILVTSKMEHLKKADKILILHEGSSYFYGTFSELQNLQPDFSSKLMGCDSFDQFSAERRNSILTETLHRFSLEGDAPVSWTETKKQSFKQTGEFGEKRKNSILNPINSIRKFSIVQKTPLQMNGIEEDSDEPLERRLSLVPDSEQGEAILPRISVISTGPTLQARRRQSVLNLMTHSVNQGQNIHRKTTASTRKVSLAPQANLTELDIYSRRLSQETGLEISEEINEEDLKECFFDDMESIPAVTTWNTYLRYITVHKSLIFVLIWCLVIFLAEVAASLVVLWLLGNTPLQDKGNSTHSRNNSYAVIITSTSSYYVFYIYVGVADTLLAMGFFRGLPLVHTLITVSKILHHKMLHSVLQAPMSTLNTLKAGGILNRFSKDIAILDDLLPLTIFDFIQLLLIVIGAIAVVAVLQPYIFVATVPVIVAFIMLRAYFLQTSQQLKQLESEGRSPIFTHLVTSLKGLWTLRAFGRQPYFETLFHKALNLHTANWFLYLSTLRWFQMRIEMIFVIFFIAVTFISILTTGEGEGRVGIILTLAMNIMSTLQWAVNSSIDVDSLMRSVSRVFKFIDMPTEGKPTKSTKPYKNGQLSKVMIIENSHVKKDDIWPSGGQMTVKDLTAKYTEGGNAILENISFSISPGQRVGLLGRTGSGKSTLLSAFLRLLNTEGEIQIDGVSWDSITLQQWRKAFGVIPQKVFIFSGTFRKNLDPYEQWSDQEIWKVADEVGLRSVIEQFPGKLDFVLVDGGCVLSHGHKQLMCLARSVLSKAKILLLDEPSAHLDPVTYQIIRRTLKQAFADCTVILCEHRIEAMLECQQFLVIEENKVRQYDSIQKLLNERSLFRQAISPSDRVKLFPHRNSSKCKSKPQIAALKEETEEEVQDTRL
test.details: YFP-halide influx assay for the CFTR-ΔF508 mutation, gluconate buffer
Format: cell-based
experimental.conditions: CFBE41o- cells, forskolin 10.67 μM
Entries and their EC50 values follow.
Please give a number only; it is taken to be in nM.

Examples with answers:
CC1(C(=O)Nc2sc(S(=O)(=O)N3CCOCC3)cc2C(N)=O)CC1 :: 1280
NC(=O)c1cc(S(=O)(=O)N2CCCCC2)sc1NC(=O)C1CCCC1 :: 401

Form field: reported EC50 of Cc1ccc(C(=O)Nc2sc(S(=O)(=O)N(C)Cc3ccccc3)cc2C(N)=O)s1 321

----------
tested.target: CFTR ΔF508 mutant (Homo sapiens, UniProt P13569, DEL508-508)
Construct: expressed in transfected cells; host or cells: CFBE41o- (adenoviral transduction)
test.details: YFP-halide influx assay for the CFTR-ΔF508 mutation, PBS buffer (96 well)
Type: cell-based
experimental.conditions: CFBE41o- cells, forskolin 10.67 μM
Description: The YFP halide influx assay measures the functionality of the cystic fibrosis Transmembrane Conductance regulator (CFTR) channels in the cystic fibrosis bronchial epithelium cell line CFBE41o-. […] It makes use of the observation that the yellow fluorescent protein (YFP) variant YFP H148Q, I152L has its fluorescence substantially quenched by halide ions like Cl^− and I^−. […] The I^− induced quenching of fluorescence is recorded immediately after injection of I^− for 7 seconds. […]
We'd kindly ask you to apply these EC50 classes: low end (below 40 nM), middle (40 nM to below 200 nM), high end (200 nM or more)

Here are 10 molecules together with their reported answers.
CC(O)C(=O)Nc1sc(S(=O)(=O)c2ccccc2OC(F)(F)F)cc1C(N)=O (stereo not shown) :: low end
NC(=O)c1cc(S(=O)(=O)c2ccc(F)cc2Br)sc1NC(=O)C1(O)CC1 :: low end
NC(=O)c1cc(S(=O)(=O)c2ccc(F)cc2)sc1NC(=O)C1CCCC1O (stereo not shown) :: middle
CC1CN(S(=O)(=O)c2cc(C(N)=O)c(NC(=O)C3(O)CC3)s2)CC(C)O1 (stereo not shown) :: high end
NC(=O)c1cc(S(=O)(=O)N2CCOCC2)sc1NC(=O)c1ccccc1C(F)(F)F :: high end
Cc1cccnc1S(=O)(=O)c1cc(C(N)=O)c(NC(=O)C(C)(C)O)s1 :: high end
CC(C)(O)C(=O)Nc1sc(S(=O)(=O)c2ccc(F)cc2OC(F)F)cc1C(N)=O :: middle
NC(=O)c1cc(S(=O)(=O)c2ccc(F)cc2)sc1NC(=O)C(O)(C(F)(F)F)C(F)(F)F :: high end
CN(C1CC1)S(=O)(=O)c1cc(C(N)=O)c(NC(=O)c2ccccc2C(F)(F)F)s1 :: middle
CC(C)(O)C(=O)Nc1sc(S(=O)(=O)c2c(Cl)cccc2Cl)cc1C(N)=O :: low end

For this molecule, which bin applies? CC1(C)COCCN1S(=O)(=O)c1cc(C(N)=O)c(NC(=O)C2(O)CC2)s1 high end

----------
tested.target: CFTR-G1349D (Homo sapiens, UniProt P13569, G1349D)
Construct: expressed in transfected cells
Sequence (P13569 whole entry G1349D): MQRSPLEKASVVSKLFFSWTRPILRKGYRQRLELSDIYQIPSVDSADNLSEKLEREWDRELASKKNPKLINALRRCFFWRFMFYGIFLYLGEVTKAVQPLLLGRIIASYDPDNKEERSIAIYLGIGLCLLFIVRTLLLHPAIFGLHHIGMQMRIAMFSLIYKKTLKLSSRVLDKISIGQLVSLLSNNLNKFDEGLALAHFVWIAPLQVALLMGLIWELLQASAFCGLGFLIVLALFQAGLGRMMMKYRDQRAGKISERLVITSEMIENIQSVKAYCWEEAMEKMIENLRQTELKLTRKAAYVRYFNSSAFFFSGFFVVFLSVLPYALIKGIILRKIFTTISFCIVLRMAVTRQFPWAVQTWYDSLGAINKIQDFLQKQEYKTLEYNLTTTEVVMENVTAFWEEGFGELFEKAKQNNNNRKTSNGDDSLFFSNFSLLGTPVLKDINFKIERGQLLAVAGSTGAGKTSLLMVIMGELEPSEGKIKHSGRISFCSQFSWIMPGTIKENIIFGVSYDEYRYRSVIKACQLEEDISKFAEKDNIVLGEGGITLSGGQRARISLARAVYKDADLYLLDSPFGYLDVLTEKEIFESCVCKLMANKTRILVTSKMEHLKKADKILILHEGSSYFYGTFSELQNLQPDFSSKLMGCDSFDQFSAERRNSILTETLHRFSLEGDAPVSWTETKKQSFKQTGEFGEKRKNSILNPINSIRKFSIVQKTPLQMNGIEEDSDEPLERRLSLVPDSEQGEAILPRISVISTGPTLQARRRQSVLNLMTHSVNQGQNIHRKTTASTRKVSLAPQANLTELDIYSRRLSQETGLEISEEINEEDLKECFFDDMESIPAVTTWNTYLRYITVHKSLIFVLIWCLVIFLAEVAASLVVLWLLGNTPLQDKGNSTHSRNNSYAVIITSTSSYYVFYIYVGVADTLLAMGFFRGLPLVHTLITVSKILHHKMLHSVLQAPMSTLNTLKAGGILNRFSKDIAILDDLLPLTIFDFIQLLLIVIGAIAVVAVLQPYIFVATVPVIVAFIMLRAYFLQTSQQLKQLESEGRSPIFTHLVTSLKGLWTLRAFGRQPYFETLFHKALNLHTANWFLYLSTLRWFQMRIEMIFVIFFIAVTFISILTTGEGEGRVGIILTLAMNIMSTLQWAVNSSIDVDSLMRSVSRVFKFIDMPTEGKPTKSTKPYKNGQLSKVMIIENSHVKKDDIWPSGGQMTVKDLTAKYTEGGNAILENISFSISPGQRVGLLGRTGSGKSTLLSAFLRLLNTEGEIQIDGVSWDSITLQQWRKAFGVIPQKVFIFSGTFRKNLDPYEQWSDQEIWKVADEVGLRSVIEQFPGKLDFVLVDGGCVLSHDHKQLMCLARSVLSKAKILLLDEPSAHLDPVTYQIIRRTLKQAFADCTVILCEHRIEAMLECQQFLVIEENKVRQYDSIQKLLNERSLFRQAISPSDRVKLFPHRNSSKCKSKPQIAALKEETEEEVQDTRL
test.details: YFP-halide influx assay for the CFTR-G1349D
Format: cell-based
assay.endpoint: log10 of EC50 (log10 of the value in µM)
Answers are given as log10 of EC50 in µM.

These recorded examples may help you get a feel for the data.
CC(C)(O)C(=O)Nc1sc(S(=O)(=O)c2nc(Cl)ccc2C(F)(F)F)cc1C(N)=O :: 0.39
CC(C)(O)C(=O)Nc1sc(S(=O)(=O)c2c(Cl)cccc2Cl)cc1C(N)=O :: -1.16
NC(=O)c1cc(S(=O)(=O)c2ccc(F)cc2)sc1NC(=O)C1(CO)CC1 :: -0.85
CC(C)(O)C(=O)Nc1sc(S(=O)(=O)c2nc(C(C)(C)C)ccc2C(F)(F)F)cc1C(N)=O :: -2.22
CC(C)(O)C(=O)Nc1sc(S(=O)(=O)c2nc(C(F)(F)F)ccc2C(F)(F)F)cc1C(N)=O :: -2.13
COc1cc(S(=O)(=O)c2cc(C(N)=O)c(NC(=O)C(C)(C)O)s2)c(OC(F)F)cc1F :: 0.52

Consider the molecule shown here: CC(C)(O)C(=O)Nc1sc(S(=O)(=O)c2ccc(C#N)cc2C(F)(F)F)cc1C(N)=O What is its recorded log10 of EC50? 0.52

Same question for CC(C)(O)C(=O)Nc1sc(S(=O)(=O)c2ccc(OC(F)(F)F)c(F)c2)cc1C(N)=O please. -0.87

Input CC(C)(O)C(=O)Nc1sc(S(=O)(=O)c2ccccc2Cl)cc1C(N)=O -0.59

Consider next the molecule Cc1ccc(C(F)(F)F)c(S(=O)(=O)c2cc(C(N)=O)c(NC(=O)C(C)(C)O)s2)n1 in the same way. -0.87
